# System: LK-2
# Experiment Description: relative viability (nuclei count vs DMSO), 5 days (fraction); higher = more cells survive
# Assay Conditions: first compound 0.01 µM
Measured Parameter: relative viability

Compound: NC(=O)Nc1cc(-c2cccc(F)c2)sc1C(=O)N[C@H]1CCCNC1 [AZD7762] + Cc1cc(Nc2cc(N3CCN(C)CC3)nc(Sc3ccc(NC(=O)C4CC4)cc3)n2)n[nH]1 [Tozasertib] (partner 0.1 µM)
Assay Target: LK-2
Measured Parameter: relative viability
Reported: 0.194
--
Compound: NC(=O)Nc1cc(-c2cccc(F)c2)sc1C(=O)N[C@H]1CCCNC1 [AZD7762] + CC(=O)c1c(C)c2cnc(Nc3ccc(N4CCNCC4)cn3)nc2n(C2CCCC2)c1=O [Palbociclib] (partner 0.5 µM)
Assay Target: LK-2
Measured Parameter: relative viability
Reported: 0.6
--
Compound: NC(=O)Nc1cc(-c2cccc(F)c2)sc1C(=O)N[C@H]1CCCNC1 [AZD7762] + N=C(N)NC(=N)NCCc1ccccc1 [Phenformin] (partner 250 µM)
Assay Target: LK-2
Measured Parameter: relative viability
Reported: 0.396
--
Compound: NC(=O)Nc1cc(-c2cccc(F)c2)sc1C(=O)N[C@H]1CCCNC1 [AZD7762] + COc1cccc2cc(-c3nc([C@H]4CC[C@H](C(=O)O)CC4)n4ncnc(N)c34)[nH]c12 [OSI-027] (partner 0.5 µM)
Assay Target: LK-2
Measured Parameter: relative viability
Reported: 0.192
